Just for reference, PubChem BioAssay (NCATS) is where these values come from.

Assay: Viability qHTS for spleen associated tyrosine kinase inhibitor (SYKi) naive MV4-11 cells (AID 1963823); note: nearly all actives have a fitted effect of over 40% in size
Details: MV4-11 AML viability, CellTiter-Glo luminescence, 72 h; series mostly up to 45 µM
Procedure: Department of Medicine, Hematology/Oncology University Hospital Frankfurt, Germany. Trials have shown promising clinical activity of the selective SYK inhibitor entospletinib in patients with high expressing HOXA9/MEIS1 acute leukemias. […] 7; Detection; Luminescence; ViewLux plate reader (PerkinElmer). […] 1. Quantitative high-throughput screening (qHTS) of small molecule compounds was conducted on naive SYKi MV4-11 cell line. […] 7. Luminescence was measured on a ViewLux plate reader (PerkinElmer).
Results filed as inconclusive are left out. Activity calls are given as the source filed them. Calls come from the whole dose curve; as a rule, active = well fitted cell-killing curve with a large enough effect; inconclusive = small, poorly fitted or top-dose-only effect, or effect the other way; inactive = no such curve, though single readings can be large or run the other way.
Outcomes: active, inactive

| molecule | category |
| --- | --- |
| CN1CCc2c(c3ccccc3n2Cc2ccc(C(=O)NO)cc2)C1 | active |
| O=c1[nH]nc(OCCCc2ccc(Cl)cc2)c(NCc2cccnc2)c1Br | active |
| CNc1ncc2cc(-c3cc(NC(=O)NCCC(C)(C)C)c(F)cc3C)c(C)nc2n1 | active |
| CC1OC(=O)C[C@@H]2C(C(=O)O)=CO[C@@H](O[C@H]3O[C@H](CO)[C@@H](O)[C@H](O)[C@H]3O)[C@H]12 (some centres undefined) | inactive |
| CC(C)[C@H](O)C(=O)N[C@@H](C)C(=O)N[C@@H]1C(=O)N(C)CCc2ccccc21 | inactive |
| O=C(O)CSCC(=O)NC1CCSC1=O (centres undefined) | inactive |
| COc1cc(C2OCC3(O)C(c4ccc(O[C@@H]5O[C@H](CO)[C@@H](O)[C@H](O)[C@H]5O)c(OC)c4)OCC23O)ccc1O (some centres undefined) | inactive |
| CN1CCN(C(=O)C2CCCCC2)CC1 | inactive |
| COc1cc(O)cc(C)c1C(=O)O[C@H]1[C@@H](O)[C@@H](n2ccc(=O)[nH]c2=O)O[C@@H]1CO | inactive |

----------
Assay: Viability qHTS for spleen associated tyrosine kinase inhibitor (SYKi) naive MV4-11 cells (AID 1963823); note: nearly all actives have a fitted effect of over 40% in size; note: potency is the fitted concentration of half-maximal effect
Conditions: MV4-11 AML viability, CellTiter-Glo luminescence, 72 h; series mostly up to 45 µM
Records with an inconclusive call do not appear. The source made the active and inactive calls. Calls come from the whole dose curve; as a rule, active = well fitted cell-killing curve with a large enough effect; inconclusive = small, poorly fitted or top-dose-only effect, or effect the other way; inactive = no such curve, though single readings can be large or run the other way.

| compound | Potency |
| --- | --- |
| CC1(C)CCC(C)(C)c2cc([C@@H](O)C(=O)Nc3ccc(C(=O)O)cc3F)ccc21 | 4110 nM (active) |
| O=C(/C=C/C#Cc1cccc(NS(=O)(=O)c2ccccc2)c1)NO | 407 nM (active) |
| COc1ccccc1OCCNCC(O)COc1cccc2[nH]c3ccccc3c12 (stereo not given) | 13300 nM (active) |
| COc1cc2nccc(Oc3ccc(NC(=O)Nc4cc(C)on4)c(Cl)c3)c2cc1OC | 372 nM (active) |
| CC12CC34CC(O)C5C(CO)(CO)CC(=O)CC5(C)C3CC1C2C4 (stereo not given) | inactive |
| CN1CCN(Cc2ccc(-c3cnc4[nH]cc(-c5ccc6[nH]ccc6c5)c4c3)cc2)CC1 | 82 nM (active) |
| CC(=O)OC1CC(C(C)(C)O)OC2CCC3(C)OC4=C(C(=O)C=C5C(C)C(OC(C)=O)C6(C)C(C)OC546)C(O)C3C12C (stereo not given) | inactive |
| CC(/C=C/C1(O)C(C)CC(O)CC1(C)C)OC1OC(CO)C(O)C(O)C1O (stereo not given) | inactive |
| CC(C)C(CO)Nc1nc(Nc2cc(N)cc(Cl)c2)c2ncn(C(C)C)c2n1 (stereo not given) | 517 nM (active) |
| O=C(O)C(=O)Nc1cccc(-c2nn[nH]n2)c1 | inactive |

----------
Assay: Quantitative highthroughput screen to assess conditional lethalithy of P12 Ichikawa cells grown in RPMI1640 with dialyzed fetal bovine serum (RPMI+ds) (AID 1963880); note: nearly all actives have a fitted effect of over 35% in size;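 for viability: 100% = DMSO wells and 0% = empty wells on each plate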
Details: ATP luminescence, 48 h; P12-Ichikawa viability; series mostly up to 45.8 µM
Results filed as inconclusive are left out. Calls of active or inactive are those of the source. The call rests on the fitted dose curve; in most records, active means well fitted cell-killing curve with a large enough effect; inconclusive means small, poorly fitted or top-dose-only effect; inactive means flat fitted curve, though single readings scatter.
Outcomes: TRUE for active, FALSE for inactive

| molecule | category |
| --- | --- |
| O=C(O)[C@H](CC(=O)N1C[C@@H]2CCCC[C@H]2C1)Cc1ccccc1 | FALSE |
| CCCn1c(=O)c2[nH]c(C34CC5CC3C[C@@H](C5)C4)nc2n(CCC)c1=O | FALSE |
| CC(=O)N(C)C1(c2ccccc2)CCN(CCC[C@]2(c3ccc(Cl)c(Cl)c3)CCCN(C(=O)c3ccccc3)C2)CC1 | TRUE |
| CN(C)c1ccccc1CN1CCCN(Cc2ccccc2N(C)C)C1c1ccncc1 | FALSE |
| CC(C(=O)O)c1cccc(C(=O)c2ccccc2)c1 (stereo not given) | FALSE |
| CN(NC(=O)CC(=O)NN(C)C(=S)c1ccccc1)C(=S)c1ccccc1 | TRUE |
| CCS(=O)(=O)N1CC(CC#N)(n2cc(-c3ncnc4[nH]ccc34)cn2)C1 | FALSE |
| CC(=Cc1ccccc1)C=C1SC(=S)N(CC(=O)O)C1=O | FALSE |
| CC(=NNC(=S)N1CCC1)c1ccccn1 | TRUE |
| CCN(CC)CCn1c(=O)c(Cc2ccc(OC)cc2)nc2ccccc21 | FALSE |

----------
Experiment: Cellular viability qHTS for adrenocortical cancer (ACC) cell line SW-13 (AID 1963989);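 note: cells grown in serum-free medium with ITS supplement; % is set by controls: 0 for no effect and ±100 for the full control effect; nearly all actives have a fitted effect of over 65% in size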
Conditions: SW-13 ACC cells viability, CellTiter-Glo, 48 h; active compounds read low
Results filed as inconclusive are left out.
Reported activity (max response) by item:

| compound | activity (max response), % |
| --- | --- |
| CC(/C=C1\SC(=S)N(CC(=O)O)C1=O)=C\c1ccccc1 | 4.22 |
| CC(=O)N(CC(O)CO)c1c(I)c(C(=O)NCCO)c(I)c(C(=O)NCC(O)CO)c1I (stereo not given) | 7.39 |
| O=C(O)CCCCN(CCc1ccccc1OCc1ccc(CCc2ccccc2)cc1)Cc1ccc(C(=O)O)cc1 | 9.06 |
| CCOc1ccccc1N=Nc1c(C)[nH]n(-c2nc(-c3ccccc3)cs2)c1=O | -16.4 |
| C[C@H](O)[C@@H]1C(=O)N2C(C(=O)O)=C(S[C@@H]3CN[C@H](CNS(N)(=O)=O)C3)[C@@H](C)[C@@H]12 | 8.99 |
| COC(=O)N1CC2(CC2)C[C@H](C(=O)NO)[C@H]1C(=O)N1CCN(c2ccccc2)CC1 | -14.2 |
| CC(=O)Nc1ccc(CC(=O)O)cc1 | 4.33 |
| O=C(Nc1ccc(F)c(C(F)(F)F)c1)Nc1nnc(-c2ccncc2)s1 | 4.96 |
| NCCNC(=O)c1ccc(Cl)cn1 | -2.26 |
| Nc1ccn([C@@H]2O[C@H](CO)[C@@H](O)[C@H]2O)c(=O)n1 | 10.2 |
| CC(C)(Oc1ccc(Cl)cc1)C(=O)OCCCOC(=O)C(C)(C)Oc1ccc(Cl)cc1 | 0.371 |
| Cn1c(=O)c(Oc2ccc(F)cc2F)cc2cnc(NC3CCOCC3)nc21 | -3.03 |
| O=C(NCCN1CCOCC1)c1ccc(Cl)cc1 | 1.07 |
| CC(=O)N1CCN(c2ccc(O)cc2)CC1 | 7.26 |
| c1cnc(N2CCN(Cc3ccc4c(c3)OCO4)CC2)nc1 | 6.56 |
| CO[C@H]1C=CO[C@@]2(C)Oc3c(C)c(O)c4c(O)c(c(/C=N/N5CCN(C)CC5)c(O)c4c3C2=O)NC(=O)/C(C)=C\C=C[C@H](C)[C@H](O)[C@@H](C)[C@@H](O)[C@@H](C)[C@H](OC(C)=O)[C@@H]1C | -17.1 |
| O=C(Nc1nccs1)C(c1cc(F)ccc1O)N1Cc2ccccc2C1=O (stereo not given) | -2.19 |
| CCCCc1nc(Cl)c(CO)n1Cc1ccc(-c2ccccc2-c2nn[nH]n2)cc1 | 12.4 |
| O=C(CCN1CCN(C(=O)OCc2cc(Cl)cc(Cl)c2)CC1)c1ccc2[nH]c(=O)oc2c1 | -15.7 |
| COC(=O)/C=C(/C)N | 13.3 |

----------
Assay: Quantitative highthroughput screen to assess conditional lethalithy of P12 Ichikawa cells grown in Human Plasma-Like Medium with dialyzed fetal bovine serum (HPLM+ds) (AID 1963879); note: nearly all actives have a fitted effect of over 35% in size
Details: ATP luminescence, 48 h; viability; series mostly up to 45.8 µM
Records with an inconclusive call do not appear. The source made the active and inactive calls. The call rests on the fitted dose curve; in most records, active means well fitted cell-killing curve with a large enough effect; inconclusive means small, poorly fitted or top-dose-only effect; inactive means flat fitted curve, though single readings scatter.
Outcomes: Yes (active), No (inactive)

| compound | category |
| --- | --- |
| COc1ccc2c(c1)c(C1=C(c3c[nH]c4ccccc34)C(=O)NC1=O)cn2CCCN(C)C | No |
| CNC(=O)c1ccc(-c2cnc3ncc(Cc4ccc5ncccc5c4)n3n2)cc1F | No |
| CC[C@@]1(O)C(=O)OCc2c1cc1n(c2=O)Cc2cc3cc(O)ccc3nc2-1 | Yes |
| COc1ccccc1OCCNCC(O)COc1cccc2[nH]c3ccccc3c12 (centres undefined) | No |
| COc1ccc(-n2nc(C(N)=O)c3c2C(=O)N(c2ccc(N4CCCCC4=O)cc2)CC3)cc1 | Yes |
| CCCN[C@H]1CCc2nc(N)sc2C1 | No |
| O=c1ccn([C@@H]2O[C@H](CO)[C@H](O)[C@@H]2F)c(=O)[nH]1 | No |
| O[C@@H](CNC[C@H](O)[C@H]1CCc2cc(F)ccc2O1)[C@@H]1CCc2cc(F)ccc2O1 | No |
| N=C(N)c1ccc(OCCCCCOc2ccc(C(=N)N)cc2)cc1 | No |
| COC(=O)[C@]12CCC(C)(C)C[C@@H]1[C@@H]1C(=O)C=C3[C@@]4(C)C=C(C#N)C(=O)C(C)(C)[C@@H]4CC[C@@]3(C)[C@]1(C)CC2 | Yes |
| N[C@@H](Cc1c[nH]c2ccc(O)cc12)C(=O)O | No |
| COc1cc2nc(N3CCN(C(=O)C4CCCO4)CC3)nc(N)c2cc1OC (centres undefined) | No |
| CCOC(=O)C1=C(N)Oc2ccc(Br)cc2C1C(C#N)C(=O)OCC (centres undefined) | No |
| COc1cc([C@H]2Oc3cc([C@H]4Oc5cc(O)cc(O)c5C(=O)[C@H]4O)ccc3O[C@H]2CO)ccc1O | No |
| CC(=O)O[C@]1(C(C)=O)CC[C@H]2[C@@H]3C=C(Cl)C4=CC(=O)[C@@H]5C[C@H]5[C@]4(C)[C@@H]3CC[C@@]21C | Yes |
| NCCc1ccc(O)c(O)c1 | No |
| NC(=O)c1cccc(-c2cc(Nc3ccc(OC(F)(F)F)cc3)ncn2)c1 | No |
| O=c1[nH]nc(OCCCc2ccc(Cl)cc2)c(NCc2cccnc2)c1Br | Yes |
| O=C(Nc1cccnc1)N1CCC(Cc2cccc(Oc3ccc(C(F)(F)F)cn3)c2)CC1 | Yes |
| Cc1ccc(C(=O)c2cc(O)c(O)c([N+](=O)[O-])c2)cc1 | No |
| CN(C)Cc1c(C(=O)NCCOc2ccc(C(=O)NO)cc2)oc2ccccc12 | Yes |
| COc1ccc2cc([S+]([O-])Cc3ncc(C)c(OC)c3C)nc2c1 | No |
| C[C@H]1[C@@H](OC(=O)CCC(=O)O)O[C@@H]2O[C@@]3(C)CC[C@@H]4[C@H](C)CC[C@@H]1[C@@]24OO3 | Yes |
| Clc1cccc(Cl)c1NC1=NCCN1 | No |
| Cc1cccc(Nc2ccncc2S(=O)(=O)NC(=O)NC(C)C)c1 | No |
| O=c1cc(-c2ccc(O)c(O)c2)oc2cc(O)cc(O)c12 | No |
| Cc1[nH]c(C=C2C(=O)Nc3ccc(S(=O)(=O)Cc4c(Cl)cccc4Cl)cc32)c(C)c1C(=O)N1CCC[C@H]1CN1CCCC1 | No |
| CCCCCCCCOc1ccccc1C(=O)Nc1ccc(C(=O)OCC[N+](C)(CC)CC)cc1 | No |
| O[C@@H](COc1cccc2ncccc12)CN1CCN(C2c3ccccc3[C@@H]3[C@H](c4ccccc42)C3(F)F)CC1 (some centres undefined) | No |
| NS(=O)(=O)NCCNc1nonc1C(=Nc1ccc(F)c(Br)c1)NO | Yes |
| CC1(CN2CCC(n3c(=O)[nH]c4ccccc43)CC2)OCc2ccccc2-n2cccc21 (centres undefined) | No |
| C[C@]12CCC3=C4CCC(=O)C=C4CC[C@@H]3[C@H]1CC[C@@]2(O)CC#N | No |
| COc1cc2c(Nc3ccc(Cl)c(Cl)c3F)ncnc2cc1OCC1C[C@@H]2CN(C)C[C@@H]2C1 (some centres undefined) | Yes |
| CCC1(C)CC(=O)NC1=O (centres undefined) | No |
| O=C(NC1CC1)c1cccc(-c2ccc3c(NC(=O)C4CC4)n[nH]c3c2)c1 | Yes |
| Cc1ccc(C(=O)Nc2ccc(Oc3cc4cnn(C)c4cc3-c3cn[nH]c3)c(F)c2)c(=O)n1-c1ccc(F)cc1 | Yes |
| CN1CCN(CCCN2c3ccccc3Sc3ccc(C(F)(F)F)cc32)CC1 | Yes |
| N#Cc1ccnc(N2C(=O)CC[C@H]2C(=O)N(c2cncc(F)c2)[C@H](C(=O)NC2CC(F)(F)C2)c2ccccc2Cl)c1 | Yes |
| C1=CCOCc2cc(ccc2OCCN2CCCC2)Nc2nccc(n2)-c2cccc(c2)OCC1 | Yes |
